species on record: Oryctolagus cuniculus; assay: In vitro inhibition of potassium-contracted rabbit aorta strips; type: functional
outcome.measure: IC50 (nM)

Recorded results for 8 compounds are shown here.
{"compound": "CC1=C(C(=O)OC(C)C)C(c2ccccc2C(F)(F)F)N(C(=O)OC2CCCN(Cc3ccccc3)C2)C(=O)N1 (stereo not drawn)", "IC50 (nM)": 130}
{"compound": "CC1=C(C(=O)OC(C)C)C(c2ccccc2C(F)(F)F)N(C(=O)OC2CCN(Cc3ccccc3)CC2)C(=O)N1 (stereo not drawn)", "IC50 (nM)": 50}
{"compound": "CC1=C(C(=O)OC(C)C)C(c2ccccc2[N+](=O)[O-])N(C(=O)OC2CCN(Cc3ccccc3)CC2)C(=O)N1 (stereo not drawn)", "IC50 (nM)": 8}
{"compound": "CCO/C(O)=C1\\C(C)=NC(=S)N(C(=O)OCCN(C)Cc2ccccc2)C1c1cccc([N+](=O)[O-])c1 (stereo not drawn)", "IC50 (nM)": 29}
{"compound": "CC1=C(C(=O)OCC(C)C)C(c2ccccc2C(F)(F)F)N(C(=O)OC2CCN(Cc3ccccc3)CC2)C(=O)N1 (stereo not drawn)", "IC50 (nM)": 98}
{"compound": "CCOC(=O)N1C(=S)N=C(C)/C(=C(/O)OCC)C1c1cccc([N+](=O)[O-])c1 (stereo not drawn)", "IC50 (nM)": 17}
{"compound": "CC1=C(C(=O)OC(C)C)C(c2cccc([N+](=O)[O-])c2)N(CCCN(C)Cc2ccccc2)C(S)=N1 (stereo not drawn)", "IC50 (nM)": 72}
{"compound": "CCO/C(O)=C1\\C(C)=NC(=S)N(C(=O)O[C@H]2CCN(Cc3ccccc3)C2)C1c1ccccc1C(F)(F)F (stereo partly drawn)", "IC50 (nM)": 2}

1 = CCOC(=O)N1C(=S)N=C(C)/C(=C(/O)OCCN(C)Cc2ccccc2)C1c1ccccc1C(F)(F)F (stereo not drawn)
2 = CC1=C(C(=O)OC(C)C)C(c2ccccc2C(F)(F)F)N(C(=O)O[C@@H]2CCN(Cc3ccccc3)C2)C(=O)N1 (stereo partly drawn)
3 = CC1=NC(=S)N(C(=O)OC2CCN(Cc3ccccc3)CC2)C(c2ccccc2[N+](=O)[O-])/C1=C(\O)OC(C)C (stereo not drawn)
Prompt line: Please list these in order of increasing IC50. Thank you! State the ranking by listing the labels in the requested order.
Response line: 3, 1, 2
(3: 2 nM, 1: 22 nM, 2: 360 nM)

1 = CC1=NC(=S)N(C(=O)OC2CCN(Cc3ccc(F)cc3)CC2)[C@H](c2ccccc2C(F)(F)F)/C1=C(\O)OC(C)C
2 = CC1=NC(=S)N(C(=O)OC2CCN(Cc3ccccc3)CC2)C(c2cccc([N+](=O)[O-])c2)/C1=C(\O)OC(C)C (stereo not drawn)
3 = CC1=C(C(=O)OC(C)C)C(c2ccccc2C(F)(F)F)N(C(=O)O[C@H]2CCN(Cc3ccccc3)C2)C(=O)N1 (stereo partly drawn)
Prompt line: Please list these in order of increasing IC50. Thank you! State the ranking by listing the labels in the requested order.
Response line: 2, 1, 3

====

organism: Oryctolagus cuniculus; test: In vitro inhibition of potassium-contracted rabbit aorta strips; type: functional
pIC50: −log10 of the molar value.
outcome.measure: pIC50

Recorded results for 5 compounds are shown here.
{"compound": "CCO/C(O)=C1\\C(C)=NC(=S)N(C(=O)OC(C)C)C1c1ccccc1C(F)(F)F (stereo not drawn)", "val": 7.30}
{"compound": "CCO/C(O)=C1\\C(C)=NC(=S)N(C(=O)OC2CCN(Cc3ccccc3)CC2)C1c1ccccc1C(F)(F)F (stereo not drawn)", "val": 8.05}
{"compound": "CC1=NC(=S)N(C(=O)OC2CCN(Cc3ccccc3)CC2)C(c2ccccc2C(F)(F)F)/C1=C(\\O)OC(C)C (stereo not drawn)", "val": 8.30}
{"compound": "CCOC(=O)C1=C(COCCN)NC(C)=C(C(=O)OC)C1c1ccccc1Cl (stereo not drawn)", "val": 8.52}
{"compound": "CC1=C(C(=O)OC(C)C)C(c2ccccc2C(F)(F)F)N(C(=O)OC2CCN(Cc3ccc(Cl)cc3)CC2)C(=O)N1 (stereo not drawn)", "val": 7.26}

A = CC1=C(C(=O)OC(C)C)C(c2cccc([N+](=O)[O-])c2)N(C(=O)OC2CCN(Cc3ccccc3)CC2)C(=O)N1 (stereo not drawn)
B = CCO/C(O)=C1\C(C)=NC(=S)N(C(=O)OCCN(C)Cc2ccccc2)C1c1ccccc1C(F)(F)F (stereo not drawn)
Prompt line: Which value of pIC50 is numerically greater: that of A or that of B ? Your answer should be the label attached to the chosen record.
Response line: A
(A: 7.92, B: 7.64)

====

species: Oryctolagus cuniculus; assay: In vitro inhibition of potassium-contracted rabbit aorta strips; format: functional
outcome.measure: IC50 (nM)

Recorded results for 3 molecules are shown here.
{"molecule": "CC1=C(C(=O)OC(C)C)C(c2cccc([N+](=O)[O-])c2)N(C(=O)O[C@H](C)CN(C)Cc2ccccc2)C(=O)N1 (some centres undefined)", "unit.string": "nM", "val": 64}
{"molecule": "CCOC(=O)N1C(=S)N=C(C)/C(=C(/O)OCC)C1c1ccccc1C(F)(F)F (centres undefined)", "unit.string": "nM", "val": 41}
{"molecule": "CC1=NC(=S)N(C(=O)OC2CCN(Cc3ccc(F)cc3)CC2)C(c2ccccc2C(F)(F)F)/C1=C(\\O)OC(C)C (centres undefined)", "unit.string": "nM", "val": 7}

a = CC1=NC(=S)N(C(=O)OC2CCN(Cc3ccccc3)CC2)C(c2ccccc2Cl)/C1=C(\O)OC(C)C (centres undefined)
b = CC1=C(C(=O)OC(C)C)C(c2cccc([N+](=O)[O-])c2)N(C(=O)O[C@@H](C)CN(C)Cc2ccccc2)C(=O)N1 (some centres undefined)
c = CC1=C(C(=O)OC(C)C)C(c2ccccc2C(F)(F)F)N(CCC2CCN(Cc3ccccc3)CC2)C(S)=N1 (centres undefined)
d = CCOC(=O)N1C(=S)N=C(C)/C(=C(/O)OCCN(C)Cc2ccccc2)C1c1cccc([N+](=O)[O-])c1 (centres undefined)
Prompt line: Please list these in order of increasing IC50. Thank you! State the ranking by listing the labels in the requested order.
Response line: a, d, b, c
